Hello, the source for this data is ChEMBL document CHEMBL5724914, in case you need it.

PROCEDURE SUMMARY: The drug is tested on Z-010 corresponding to metagenome with ENA study accession number: PRJEB37062 and ENA sample accession number: ERS12561810 for biotransformation under anaerobic condition. The drug concentrations were measured over 9 timepoints collected between 0 and 24 hours of incubation by liquid-chromatography-coupled mass spectrometry (LC–MS); also: call rule not given here
CONDITION SUMMARY: 2 µM
QUANTITY MEASURED: Bacterial Biotransformation

Recorded results for 5 compounds are shown here.
COMPOUND: CN(C)CCOC(C)(c1ccccc1)c1ccccn1.O=C(O)CCC(=O)O (stereo not drawn) [DOXYLAMINE SUCCINATE]
VALUE: Compound NOT metabolized
--
COMPOUND: CN(C)C(=O)Oc1cc(OC(=O)N(C)C)cc(C(O)CNC(C)(C)C)c1 (stereo not drawn) [BAMBUTEROL]
VALUE: Compound NOT metabolized
--
COMPOUND: Nc1nc(NC2CC2)c2ncn([C@H]3C=C[C@@H](CO)C3)c2n1.Nc1nc(NC2CC2)c2ncn([C@H]3C=C[C@@H](CO)C3)c2n1.O=S(=O)(O)O [ABACAVIR SULFATE]
VALUE: Compound metabolized
--
COMPOUND: CCN(CC)C(=O)C1(c2ccccc2)CC1CN (stereo not drawn)
VALUE: Compound NOT metabolized
--
COMPOUND: CC#C[C@]1(O)CC[C@H]2[C@@H]3CCC4=CC(=O)CCC4=C3[C@@H](c3ccc(N(C)C)cc3)C[C@@]21C [MIFEPRISTONE]
VALUE: Compound metabolized

Lab book: Bacterial Biotransformation of COC(=O)C(c1ccccc1)C1CCCCN1 (stereo not drawn) [METHYLPHENIDATE] noted as Compound NOT metabolized

Lab book: Bacterial Biotransformation of CC(=O)O[C@]1(C(C)=O)CC[C@H]2[C@@H]3C=C(C)C4=CC(=O)CC[C@]4(C)[C@H]3CC[C@@]21C [MEGESTROL ACETATE] noted as Compound metabolized

Lab book: Bacterial Biotransformation of CN(CCOc1ccc(CC2SC(=O)NC2=O)cc1)c1ccccn1.O=C(O)/C=C\C(=O)O (stereo not drawn) [ROSIGLITAZONE MALEATE] noted as Compound NOT metabolized
